- tested system: recombinant guanylate cyclase reporter cell line (Rattus norvegicus)
- Construct: expressed in transfected cells
- measurement notes: Effect on a recombinant guanylate cyclase reporter cell line
- Assay type: cell-based
- setup conditions: minimum effective concentration
property name: MEC (nM)

Previously resolved entries follow.
O=C(O)c1cnn(C2CCCN(c3cc(Cl)ccc3-c3ccc(N4CCN(CC(F)(F)F)CC4)cc3)C2)c1C(F)F (single isomer, unassigned; enantiomer 2) [Example 21]    1.6
O=C(O)c1cnn(C2CCCN(c3cc(Cl)ccc3-c3ccc(N4CCN(CC56CC(F)(C5)C6)CC4)cc3)C2)c1C(F)F (single isomer, unassigned; enantiomer 2)    1.0

A = O=C(O)c1cnn(C2CCCN(c3cc(Cl)ccc3-c3ccc(N4CCN(CC5CC5)CC4)nc3)C2)c1C(F)F (single isomer, unassigned; enantiomer 2)
B = Cc1cc(N2CCN(CC(F)(F)F)CC2)ncc1-c1ccc(Cl)cc1N1CCCC(n2ncc(C(=O)O)c2C(F)F)C1 (single isomer, unassigned; enantiomer 2)
Request: Between A and B , whose measured MEC reads higher? Lab log: write the label of the selected item as the result.
Response: B

###

- tested system: recombinant guanylate cyclase reporter cell line (Rattus norvegicus, UniProt P20595)
- Construct: expressed in transfected cells
- Sequence (P20595 whole entry): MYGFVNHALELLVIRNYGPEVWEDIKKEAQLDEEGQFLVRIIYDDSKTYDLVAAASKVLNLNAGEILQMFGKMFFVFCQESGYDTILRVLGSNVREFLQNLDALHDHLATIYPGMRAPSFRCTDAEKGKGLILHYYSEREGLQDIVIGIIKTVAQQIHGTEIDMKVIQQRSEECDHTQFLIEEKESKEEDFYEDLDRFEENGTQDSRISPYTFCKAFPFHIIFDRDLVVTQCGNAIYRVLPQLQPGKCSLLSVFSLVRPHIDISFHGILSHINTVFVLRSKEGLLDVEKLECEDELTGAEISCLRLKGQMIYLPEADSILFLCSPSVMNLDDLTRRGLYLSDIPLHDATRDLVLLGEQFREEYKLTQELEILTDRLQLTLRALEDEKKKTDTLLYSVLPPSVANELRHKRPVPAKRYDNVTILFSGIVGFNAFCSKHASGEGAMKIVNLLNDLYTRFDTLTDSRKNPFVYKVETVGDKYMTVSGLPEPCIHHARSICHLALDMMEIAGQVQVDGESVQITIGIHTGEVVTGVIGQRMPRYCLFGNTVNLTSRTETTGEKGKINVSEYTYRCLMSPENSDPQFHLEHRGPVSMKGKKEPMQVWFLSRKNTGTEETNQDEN
- Sequence (P19686 whole entry partner): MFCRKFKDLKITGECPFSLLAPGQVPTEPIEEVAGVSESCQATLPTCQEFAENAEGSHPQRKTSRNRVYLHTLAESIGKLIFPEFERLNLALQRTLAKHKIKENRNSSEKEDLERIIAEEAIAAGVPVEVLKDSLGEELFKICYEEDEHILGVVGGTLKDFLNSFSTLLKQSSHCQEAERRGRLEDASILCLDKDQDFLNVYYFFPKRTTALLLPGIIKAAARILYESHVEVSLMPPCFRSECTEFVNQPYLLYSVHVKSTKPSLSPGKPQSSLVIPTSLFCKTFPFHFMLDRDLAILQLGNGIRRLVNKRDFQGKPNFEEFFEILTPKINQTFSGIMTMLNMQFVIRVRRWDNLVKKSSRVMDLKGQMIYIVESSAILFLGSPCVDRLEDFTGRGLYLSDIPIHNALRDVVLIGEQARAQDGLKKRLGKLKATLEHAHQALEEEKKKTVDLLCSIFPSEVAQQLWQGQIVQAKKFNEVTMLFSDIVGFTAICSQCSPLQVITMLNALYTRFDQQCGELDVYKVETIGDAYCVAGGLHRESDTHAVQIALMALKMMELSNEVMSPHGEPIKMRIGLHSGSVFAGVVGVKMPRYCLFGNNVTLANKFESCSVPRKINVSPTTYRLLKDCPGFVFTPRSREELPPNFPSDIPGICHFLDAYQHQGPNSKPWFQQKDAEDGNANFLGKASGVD
- measurement notes: Effect on a recombinant guanylate cyclase reporter cell line
- Type: cell-based
- setup conditions: minimum effective concentration
property name: MEC (nM)

O=C(O)c1cnn(C2CCCN(c3cc(Cl)ccc3-c3ccc(N4CCN(CC(F)(F)F)CC4)nc3)C2)c1C(F)F (single isomer, unassigned; enantiomer 2) [Example 65]    1.0
NC(=O)CCN1CCN(c2ccc(-c3ccc(Cl)cc3N3CCCC(n4ncc(C(=O)O)c4C(F)F)C3)cc2)CC1 (single isomer, unassigned; enantiomer 2) [Example 47]    3.0
O=C(O)c1cnn(C2CCCN(c3cc(Cl)ccc3-c3ccc(N4CCN(CC5(F)CCC5)CC4)cc3)C2)c1C(F)F (single isomer, unassigned; enantiomer 2) [Example 16]    0.3

1 = CC(C)N1CCN(c2ccc(-c3ccc(Cl)cc3N3CCCC(n4ncc(C(=O)O)c4C(F)F)C3)cc2)CC1 (single isomer, unassigned; enantiomer 2) [Example 7]
2 = CC(=O)N1CCN(c2ccc(-c3ccc(Cl)cc3N3CCCC(n4ncc(C(=O)O)c4C(F)F)C3)cn2)CC1 (single isomer, unassigned; enantiomer 2) [Example 68]
Request: Looking only at measured MEC, which entry is lower, 1 or 2 ? Lab log: write the label of the selected item as the result.
Response: 1
(1: 10.0 nM, 2: 30.0 nM)

I = CCN1CCN(c2ccc(-c3ccc(Cl)cc3N3CC(n4ncc(C(=O)O)c4C(F)F)CC(F)(F)C3)cc2)CC1 (single isomer, unassigned; enantiomer 2) [Example 53]
II = O=C(O)c1cnn(C2CCCN(c3cc(Cl)ccc3-c3ccc(N4CCN(C(=O)C5CC5)CC4)cc3)C2)c1C(F)F (single isomer, unassigned; enantiomer 2) [Example 50]
Request: Looking only at measured MEC, which entry is lower, I or II ? Lab log: write the label of the selected item as the result.
Response: II
(II: 0.3 nM, I: 10.0 nM)

a = O=C(O)c1cnn(C2CCCN(c3cc(Cl)ccc3-c3ccc(N4CCN(CC5CC5(F)F)CC4)cc3)C2)c1C(F)F (single isomer, unassigned; diastereomer 1) [Example 28]
b = O=C(O)c1cnn(C2CCCN(c3cc(Cl)ccc3-c3ccc(N4CCN(C5COC5)CC4)cc3)C2)c1C(F)F (single isomer, unassigned; enantiomer 2) [Example 43]
Request: Looking only at measured MEC, which entry is lower, a or b ? Lab log: write the label of the selected item as the result.
Response: a
